protocol details: Kinetic solubility in FaSSGF, FaSSIF and FeSSIF media
Format: physicochemical
setup conditions: FaSSIF (Fasted State Simulated Intestinal Fluid), kinetic from dmso stock; pH 6.5 FaSSIF, 4 hours
experimental readout: solubility kinetic at 4 h (µg/mL)
The answer is to be given in µg/mL; state only the numeric part.

## Task Value lookup for solubility kinetic at 4 h; key = COc1ccc(F)cc1C(=O)NCc1ccc(-c2nn([C@@H](C)C(F)(F)F)c(N)c2C(N)=O)cc1
## Result 23

====

Sequence of the target: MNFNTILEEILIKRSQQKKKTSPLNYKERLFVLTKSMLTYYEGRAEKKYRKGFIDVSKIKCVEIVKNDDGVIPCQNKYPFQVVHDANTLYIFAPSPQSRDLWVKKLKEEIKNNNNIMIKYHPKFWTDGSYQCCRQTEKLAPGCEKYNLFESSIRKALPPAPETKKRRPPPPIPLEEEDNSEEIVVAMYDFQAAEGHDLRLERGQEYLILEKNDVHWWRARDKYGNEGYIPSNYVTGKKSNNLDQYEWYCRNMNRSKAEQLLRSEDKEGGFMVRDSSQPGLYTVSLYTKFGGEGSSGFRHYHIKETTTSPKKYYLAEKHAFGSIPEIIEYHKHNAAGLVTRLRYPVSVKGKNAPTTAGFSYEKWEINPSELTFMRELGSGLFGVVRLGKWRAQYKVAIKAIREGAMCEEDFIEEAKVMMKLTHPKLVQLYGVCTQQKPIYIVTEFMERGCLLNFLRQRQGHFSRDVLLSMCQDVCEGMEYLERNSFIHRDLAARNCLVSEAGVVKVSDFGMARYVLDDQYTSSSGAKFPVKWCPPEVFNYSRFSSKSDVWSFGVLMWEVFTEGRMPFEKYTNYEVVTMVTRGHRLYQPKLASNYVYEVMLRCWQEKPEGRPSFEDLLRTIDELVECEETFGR
experimental readout: pIC50
Reminder that pIC50 means the negative base-10 logarithm of the concentration expressed in mol/L.

## Task Value lookup for pIC50; key = COc1ccc(F)cc1C(=O)NCc1ccc(-c2nn([C@@H](C)C(F)(F)F)c(N)c2C(N)=O)cc1 [compound of Formula I]
## Result 5.91

====

protocol details: Kinetic solubility in FaSSGF, FaSSIF and FeSSIF media
Format: physicochemical
setup conditions: FaSSIF (Fasted State Simulated Intestinal Fluid), kinetic from dmso stock; pH 6.5 FaSSIF, 24 hours
experimental readout: solubility kinetic at 24 h
A bare number is not enough; add the unit after it.

## Task Value lookup for solubility kinetic at 24 h; key = COc1ccc(F)cc1C(=O)NCc1ccc(-c2nn([C@@H](C)C(F)(F)F)c(N)c2C(N)=O)cc1
## Result 20 µg/mL

====

protocol details: Dog pharmacokinetics, crystalline compound in suspension (Example 15 Part A)
Type: in vivo, beagle dogs
setup conditions: both sexes, beagle, dog, plasma, oral, 30 mg/kg, fed; AUC0-t oral vs AUC0-inf of 2-mg/kg IV dose; read-out: F (bioavailability)
Method: Crystalline compound of Formula I is prepared as a suspension in 0.5% hydroxypropyl methylcellulose (IPMC) at 6 mg/mL for administration of 30 mg/kg; no correction factor is used for dose formulation. […] Blood samples are collected via the jugular vein following PO doses at 0 (pre-dose), 0.5, 1, 2, 4, 8 24 and 48 hours into EDTAblood collection tubes. […] Concentrations of the compound of Formula I in dog plasma are determined by LC-MS/MS following protein precipitation with acetonitrile. […]
experimental readout: bioavailability (%)
The answer is to be given in %; state only the numeric part.

## Task Value lookup for bioavailability; key = COc1ccc(F)cc1C(=O)NCc1ccc(-c2nn([C@@H](C)C(F)(F)F)c(N)c2C(N)=O)cc1
## Result 29.7

====

protocol details: Aqueous solubility at different pH values
Format: physicochemical
setup conditions: aqueous solution, aqueous buffer; between pH 1 to pH 10
experimental readout: solubility

## Task Value lookup for solubility; key = COc1ccc(F)cc1C(=O)NCc1ccc(-c2nn([C@@H](C)C(F)(F)F)c(N)c2C(N)=O)cc1
## Result 0.014 to 0.017 mg/mL

====

target entity: BTK (Homo sapiens)
Construct: host or cells: Ramos RA1
Sequence (Q06187 whole entry): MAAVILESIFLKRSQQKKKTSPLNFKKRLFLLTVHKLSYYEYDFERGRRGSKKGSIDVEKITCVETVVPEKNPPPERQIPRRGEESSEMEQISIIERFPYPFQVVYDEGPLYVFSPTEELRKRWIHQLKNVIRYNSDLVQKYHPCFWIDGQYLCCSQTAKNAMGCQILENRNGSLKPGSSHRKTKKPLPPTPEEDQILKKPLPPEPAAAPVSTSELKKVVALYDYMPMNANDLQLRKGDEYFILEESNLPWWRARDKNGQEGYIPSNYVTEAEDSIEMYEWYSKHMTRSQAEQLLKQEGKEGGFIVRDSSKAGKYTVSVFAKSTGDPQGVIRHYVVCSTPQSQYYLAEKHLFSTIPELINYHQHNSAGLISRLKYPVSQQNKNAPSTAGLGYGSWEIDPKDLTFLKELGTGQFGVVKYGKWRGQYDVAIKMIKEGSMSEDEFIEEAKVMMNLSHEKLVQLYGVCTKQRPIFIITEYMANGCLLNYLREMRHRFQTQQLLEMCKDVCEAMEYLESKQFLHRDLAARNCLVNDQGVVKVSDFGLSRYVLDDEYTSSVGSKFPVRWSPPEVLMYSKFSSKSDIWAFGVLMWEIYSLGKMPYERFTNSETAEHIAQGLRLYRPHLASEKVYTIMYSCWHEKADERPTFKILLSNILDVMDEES
protocol details: BTK Y223 autophosphorylation in Ramos RA1 cells
Type: cell-based
setup conditions: anti-human IgM stimulation
experimental readout: IC50 (nM)
The answer is to be given in nM; state only the numeric part.

## Task Value lookup for IC50; key = COc1ccc(F)cc1C(=O)NCc1ccc(-c2nn([C@@H](C)C(F)(F)F)c(N)c2C(N)=O)cc1
## Result 3.2

====

protocol details: Dog pharmacokinetics, crystalline compound in suspension (Example 15 Part A)
Format: in vivo, beagle dogs
setup conditions: both sexes, beagle, dog, plasma, oral, 30 mg/kg, fasted; AUC0-t oral vs AUC0-inf of 2-mg/kg IV dose; read-out: F (bioavailability)
experimental readout: bioavailability (%)
The answer is to be given in %; state only the numeric part.

## Task Value lookup for bioavailability; key = COc1ccc(F)cc1C(=O)NCc1ccc(-c2nn([C@@H](C)C(F)(F)F)c(N)c2C(N)=O)cc1
## Result 5.09

====

target entity: BTK C481S (Homo sapiens, UniProt Q06187, C481S)
Sequence (Q06187 whole entry C481S): as the sequence (Q06187 whole entry) above, with C481S counted along it
protocol details: BTK activity assay, [33P]-ATP incorporation into poly-EY
Assay type: biochemical
Parameters: against full-length wild type (WT) and mutant human BTK enzymes
setup conditions: 10 μM ATP; read-out: IC50
experimental readout: IC50 (nM)
The answer is to be given in nM; state only the numeric part.

## Task Value lookup for IC50; key = COc1ccc(F)cc1C(=O)NCc1ccc(-c2nn([C@@H](C)C(F)(F)F)c(N)c2C(N)=O)cc1 [compound of Formula I]
## Result 0.29

====

target entity: full-length wild type (WT) human BTK (Homo sapiens, UniProt Q06187)
Construct: against full-length wild type (WT) and mutant human BTK enzymes
Sequence (Q06187 whole entry): as the sequence (Q06187 whole entry) above
protocol details: BTK activity assay, [33P]-ATP incorporation into poly-EY
Format: biochemical
setup conditions: 10 μM ATP; read-out: IC50
experimental readout: IC50 (nM)
The answer is to be given in nM; state only the numeric part.

## Task So what IC50 did COc1ccc(F)cc1C(=O)NCc1ccc(-c2nn([C@@H](C)C(F)(F)F)c(N)c2C(N)=O)cc1 get with full-length wild type (WT) human BTK (Homo sapiens, UniProt Q06187)?
## Result 0.95

====

protocol details: Aqueous solubility at different pH values
Format: physicochemical
setup conditions: aqueous solution, simulated gastric fluid; pH 1.5, actual media pH 1.49
experimental readout: solubility (µg/mL)
The answer is to be given in µg/mL; state only the numeric part.

## Task Value lookup for solubility; key = COc1ccc(F)cc1C(=O)NCc1ccc(-c2nn([C@@H](C)C(F)(F)F)c(N)c2C(N)=O)cc1
## Result 15

====

target entity: UniProt P42681
Sequence (P42681 1-527): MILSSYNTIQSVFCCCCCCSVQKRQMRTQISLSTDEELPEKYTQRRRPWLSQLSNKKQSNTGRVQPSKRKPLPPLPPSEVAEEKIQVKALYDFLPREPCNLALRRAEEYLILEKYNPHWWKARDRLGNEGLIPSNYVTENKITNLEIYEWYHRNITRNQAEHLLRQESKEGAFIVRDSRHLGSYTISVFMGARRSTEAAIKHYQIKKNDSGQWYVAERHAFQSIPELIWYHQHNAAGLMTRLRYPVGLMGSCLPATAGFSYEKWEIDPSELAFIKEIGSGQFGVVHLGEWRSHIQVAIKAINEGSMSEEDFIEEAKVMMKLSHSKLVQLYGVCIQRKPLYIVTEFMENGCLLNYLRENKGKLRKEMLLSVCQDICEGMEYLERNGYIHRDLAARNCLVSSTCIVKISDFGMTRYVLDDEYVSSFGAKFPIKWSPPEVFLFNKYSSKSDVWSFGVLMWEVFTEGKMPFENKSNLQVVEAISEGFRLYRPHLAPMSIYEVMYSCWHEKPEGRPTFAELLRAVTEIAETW
experimental readout: IC50
A bare number is not enough; add the unit after it.

## Task Value lookup for IC50; key = COc1ccc(F)cc1C(=O)NCc1ccc(-c2nn([C@@H](C)C(F)(F)F)c(N)c2C(N)=O)cc1 [compound of Formula I]
## Result 0.209 µM

====

target entity: BTK C481S (Homo sapiens, UniProt Q06187, C481S)
protocol details: Y223 autophosphorylation in HEK293 cells stably expressing BTK C481S
Type: cell-based
Set-up: expressed in transfected cells; host or cells: HEK293
setup conditions: C481S mutant, 2 hr treatment, signal normalized to total BTK
experimental readout: IC50 (nM)
The answer is to be given in nM; state only the numeric part.

## Task Value lookup for IC50; key = COc1ccc(F)cc1C(=O)NCc1ccc(-c2nn([C@@H](C)C(F)(F)F)c(N)c2C(N)=O)cc1 [compound of Formula I]
## Result 8.8

====

protocol details: In vivo dog bioavailability and pharmacokinetic study, reference vs SDD
setup conditions: beagle, plasma, po, 30 mg/kg, dogs, fasted, suspension in 0.5% HPMC in water, mean ± SD
experimental readout: Cmax (ng/mL)
The answer is to be given in ng/mL; state only the numeric part.

## Task Value lookup for Cmax; key = COc1ccc(F)cc1C(=O)NCc1ccc(-c2nn([C@@H](C)C(F)(F)F)c(N)c2C(N)=O)cc1 [Reference]
## Result 597

Values from patent US12268666B2
